target: Cytochrome P450 3A4 (Homo sapiens);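 note: CYP3A4 tested as one member of a cytochrome P450 panel screen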
Sequence (P08684 whole entry): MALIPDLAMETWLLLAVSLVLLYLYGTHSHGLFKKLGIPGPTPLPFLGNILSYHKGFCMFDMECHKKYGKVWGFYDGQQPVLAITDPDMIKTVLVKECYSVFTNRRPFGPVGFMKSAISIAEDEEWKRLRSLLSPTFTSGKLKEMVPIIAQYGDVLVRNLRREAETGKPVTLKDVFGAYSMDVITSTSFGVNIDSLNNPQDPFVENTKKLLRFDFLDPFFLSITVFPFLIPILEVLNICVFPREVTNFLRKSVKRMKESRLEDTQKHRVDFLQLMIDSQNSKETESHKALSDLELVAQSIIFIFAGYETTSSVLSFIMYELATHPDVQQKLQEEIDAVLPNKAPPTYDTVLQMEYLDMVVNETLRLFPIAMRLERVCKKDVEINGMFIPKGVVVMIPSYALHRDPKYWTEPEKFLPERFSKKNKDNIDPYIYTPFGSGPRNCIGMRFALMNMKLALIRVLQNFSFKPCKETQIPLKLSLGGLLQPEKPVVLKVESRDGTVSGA

{"columns": ["MOLECULE", "AC50"],
 "data": [
  ["Cc1cc(NC(=O)CSc2nc3ccsc3c(=O)n2CCCCC(=O)O)no1", "inconclusive"],
  ["Cc1ccc2nc(SCc3nnc(-c4ccccc4[N+](=O)[O-])o3)c(C#N)cc2c1", "inconclusive"],
  ["CCCCC1(C)OC(=O)C(=Cc2ccc(N(C)C)cc2)C(=O)O1 (centres undefined)", "1000 nM (inconclusive)"],
  ["Cc1ccccc1-n1ncc2c(SCC(=O)N3c4ccccc4CC3C)ncnc21 (centres undefined)", "inconclusive"]
]}

====

# Estrogen receptor beta (Homo sapiens, UniProt Q92731): IC50 values follow;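 note: recombinant ER-beta bound to coactivator SRC1 peptide in presence of estradiol agonist; inhibitors block coactivator peptide binding and lower the FRET signal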
# Sequence (Q92731 whole entry): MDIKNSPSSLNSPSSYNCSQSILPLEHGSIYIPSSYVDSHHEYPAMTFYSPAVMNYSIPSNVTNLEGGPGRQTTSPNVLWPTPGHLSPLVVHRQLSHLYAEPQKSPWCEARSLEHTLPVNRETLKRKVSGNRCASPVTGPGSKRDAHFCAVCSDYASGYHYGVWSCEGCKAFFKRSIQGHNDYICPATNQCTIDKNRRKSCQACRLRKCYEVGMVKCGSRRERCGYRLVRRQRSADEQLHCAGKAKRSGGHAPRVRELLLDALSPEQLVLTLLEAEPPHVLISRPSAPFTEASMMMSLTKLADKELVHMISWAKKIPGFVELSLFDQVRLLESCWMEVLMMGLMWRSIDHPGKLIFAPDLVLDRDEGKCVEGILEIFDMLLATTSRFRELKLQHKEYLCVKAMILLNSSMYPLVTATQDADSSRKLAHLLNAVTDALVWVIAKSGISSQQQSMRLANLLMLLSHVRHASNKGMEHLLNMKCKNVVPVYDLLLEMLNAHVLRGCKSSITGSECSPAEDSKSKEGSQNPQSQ
The source made the active and inactive calls.

Data request, read-out IC50, for CC(C)CSc1nc2c(c(=O)[nH]c(=O)n2C)n1CC(O)COc1cccc2ccccc12 (stereo not given)
> 50 µM (not active)

May I ask what IC50 has been recorded for c1ccc(-c2nc(C3CCCCC3)no2)cc1 ?
> 50 µM (not active)

Tell me the measured IC50 of CC(=N)/C(C#N)=C(/O)CSc1nnc(Nc2ccccc2C)s1 , please.
12.2 µM (active)

Item CCc1ccccc1NC(=O)c1cc2ncc(Br)cn2n1 has what recorded IC50?
31 µM (not active)

Bench note: what IC50 did Cc1ccc(C(=O)NCC(=O)OCC(=O)c2c(N)n(C)c(=O)n(C)c2=O)s1 show?
6.84 µM (active)

====

Target: Sentrin-specific protease 7 (Homo sapiens, UniProt Q9BQF6);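 note: Luminescence-based dose-response confirmation of ultra-high-throughput screening hits, measuring inhibition of SENP7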
Sequence (Q9BQF6 whole entry): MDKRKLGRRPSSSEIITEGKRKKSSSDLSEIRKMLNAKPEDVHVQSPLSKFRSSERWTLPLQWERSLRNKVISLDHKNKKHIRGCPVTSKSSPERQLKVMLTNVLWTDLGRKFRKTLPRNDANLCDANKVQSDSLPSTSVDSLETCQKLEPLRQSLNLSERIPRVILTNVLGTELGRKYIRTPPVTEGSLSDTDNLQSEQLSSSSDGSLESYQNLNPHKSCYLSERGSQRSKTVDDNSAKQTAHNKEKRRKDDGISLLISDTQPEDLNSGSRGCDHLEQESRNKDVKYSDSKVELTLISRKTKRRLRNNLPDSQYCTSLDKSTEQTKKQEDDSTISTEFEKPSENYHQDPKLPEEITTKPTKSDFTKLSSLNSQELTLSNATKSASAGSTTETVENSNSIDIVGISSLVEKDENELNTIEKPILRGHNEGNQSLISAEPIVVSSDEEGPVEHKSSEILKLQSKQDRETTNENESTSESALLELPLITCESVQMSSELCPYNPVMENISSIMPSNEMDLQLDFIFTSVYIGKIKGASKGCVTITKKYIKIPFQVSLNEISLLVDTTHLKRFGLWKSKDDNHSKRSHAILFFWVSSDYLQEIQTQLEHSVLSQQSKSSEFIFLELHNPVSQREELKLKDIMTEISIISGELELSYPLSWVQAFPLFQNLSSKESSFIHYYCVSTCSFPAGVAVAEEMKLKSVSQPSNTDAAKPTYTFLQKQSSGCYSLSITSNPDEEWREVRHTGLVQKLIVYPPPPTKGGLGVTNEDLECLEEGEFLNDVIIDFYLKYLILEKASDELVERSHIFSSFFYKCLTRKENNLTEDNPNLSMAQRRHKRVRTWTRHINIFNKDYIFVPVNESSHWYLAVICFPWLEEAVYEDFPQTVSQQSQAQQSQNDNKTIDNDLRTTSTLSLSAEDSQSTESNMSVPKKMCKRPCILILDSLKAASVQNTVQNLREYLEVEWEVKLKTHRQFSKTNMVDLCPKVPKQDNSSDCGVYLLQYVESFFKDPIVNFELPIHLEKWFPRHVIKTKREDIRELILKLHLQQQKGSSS
Type: functional
The source made the active and inactive calls.
Kindly supply the reported IC50 values for the records listed here.

Give the measured IC50 of Cc1ccc(Oc2cc(-n3nc(C)cc3C)ncn2)cc1 .
9.25 µM (active)

I have this molecule here, O=C(Oc1ccc2ccccc2c1Cl)N1CCCCCC1 , and I need its recorded IC50.
7.15 µM (active)

Recorded IC50 of Cc1cc([N+](=O)[O-])cc(/C=N\NC(=O)C2COc3ccccc3O2)c1O (configuration not stated) , please.
14.5 µM (active)

GET /values?readout=IC50&item= c1ccc(-c2nc(C3CCCCC3)no2)cc1
23.2 µM (active)

GET /values?readout=IC50&item= CC(C)(C)c1cc[n+](C2=C([N-]S(=O)(=O)c3cccs3)C(=O)c3ccccc3C2=O)cc1
8.77 µM (active)

What value of IC50 has been reported for the following molecule? N=c1oc2ccccc2cc1C(=O)Nc1ccccc1
11.4 µM (active)

Please give the measured IC50 for this molecule: CCCNC(=O)c1c(N)n(CC2CCCO2)c2nc3ccccc3nc12 (configuration not stated)
2.83 µM (active)
